The measurements presented in this section are drawn from patent US8822449B2.

molecular target: sodium-proton exchanger of subtype 3 (NHE3) (Homo sapiens); construct: expressed in transfected cells; assay: Recovery of intracellular pH (pHi) after acidification in LAP1 cells stably expressing NHE3 (BCECF fluorescence, FLIPR); format: cell-based; settings: LAP1 cells stably expressing NHE3; pH recovery after acidification; range 1 is % inhibition at 10 μM; read-out: Activity range (inhibitory effect on NHE3)
Sequence (P48764 26-834, species assumed): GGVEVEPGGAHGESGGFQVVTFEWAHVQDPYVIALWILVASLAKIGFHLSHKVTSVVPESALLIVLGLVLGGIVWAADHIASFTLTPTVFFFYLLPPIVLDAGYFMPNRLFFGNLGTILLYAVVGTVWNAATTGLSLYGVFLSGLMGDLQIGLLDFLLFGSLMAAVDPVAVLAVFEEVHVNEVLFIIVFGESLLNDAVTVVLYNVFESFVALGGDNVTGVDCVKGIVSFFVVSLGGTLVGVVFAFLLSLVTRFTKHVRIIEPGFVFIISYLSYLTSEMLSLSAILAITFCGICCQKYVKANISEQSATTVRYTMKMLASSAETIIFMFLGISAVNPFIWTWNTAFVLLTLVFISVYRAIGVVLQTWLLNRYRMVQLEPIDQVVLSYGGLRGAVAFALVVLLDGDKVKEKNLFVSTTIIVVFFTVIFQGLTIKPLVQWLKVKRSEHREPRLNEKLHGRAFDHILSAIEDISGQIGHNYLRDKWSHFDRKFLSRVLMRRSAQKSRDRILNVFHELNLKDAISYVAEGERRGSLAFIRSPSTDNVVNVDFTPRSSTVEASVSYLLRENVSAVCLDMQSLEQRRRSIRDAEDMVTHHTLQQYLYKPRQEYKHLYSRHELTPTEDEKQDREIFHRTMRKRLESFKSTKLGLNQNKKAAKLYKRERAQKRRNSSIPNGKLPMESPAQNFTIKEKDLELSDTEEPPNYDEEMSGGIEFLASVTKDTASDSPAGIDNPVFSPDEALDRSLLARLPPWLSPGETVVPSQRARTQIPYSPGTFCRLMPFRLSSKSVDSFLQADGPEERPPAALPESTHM
MEASURED METRIC: IC50

>>> print(df.to_string())
                                    molecule  measured_metric  data_value
 0  CS(=O)(=O)c1ccc(O[C@H]2c3cc(F)cc(Cl)c3C[C@@H]2N2CCNCC2)cc1 (racemic)             IC50      < 1 µM
 1  CC(=O)Nc1cccc(O[C@@H]2c3ccccc3C[C@H]2N2CCSCC2)c1 (racemic)             IC50  1 to 10 µM
 2  O=S(=O)(c1ccc(O[C@H]2c3cc(Cl)cc(Cl)c3C[C@@H]2N2CC[C@@H](O)C2)cc1)N1CCOCC1             IC50  1 to 10 µM
 3  O=C1CCC(=O)N1c1cccc(O[C@H]2c3cc(Cl)cc(Cl)c3C[C@@H]2N2CC[C@@H](O)C2)c1             IC50  1 to 10 µM
 4  CN(c1ccc(F)c(O[C@H]2c3cc(Cl)cc(F)c3C[C@@H]2N2CC[C@@H](O)C2)c1)S(C)(=O)=O             IC50  1 to 10 µM
 5  Cc1ccc(O[C@@H]2c3ccccc3C[C@H]2N2CCC(CN)CC2)c(Br)c1 (racemic)             IC50  1 to 10 µM
 6  CS(=O)(=O)c1ccc(OC2c3ccccc3CC2N2CCC[C@@H](N)C2)c(Cl)c1Cl (mixture of isomers)             IC50      < 1 µM
 7  N[C@@H]1CCCN([C@@H]2Cc3ccccc3[C@H]2Oc2ccc(-n3cncn3)cc2)C1 (racemic)             IC50      < 1 µM
 8  CS(=O)(=O)Nc1ccc(C(=O)O[C@H]2c3ccccc3C[C@@H]2N2CCCC2)c(Cl)c1             IC50  1 to 10 µM
 9  Cn1ccn(-c2ccc(F)c(O[C@H]3c4cc(Cl)cc(F)c4C[C@@H]3N3CC[C@@H](O)C3)c2)c1=O             IC50      < 1 µM
10  Cc1nnc(C2CC2)n1-c1ccc(O[C@H]2c3ccccc3C[C@@H]2N2CCCC2)cc1 (racemic)             IC50      < 1 µM
11  Cn1ccn(-c2ccc(Cl)c(O[C@H]3c4cc(Cl)cc(Cl)c4C[C@@H]3N3CC[C@@H](O)C3)c2)c1=O             IC50      < 1 µM
12  Cc1c(O[C@H]2c3cc(Cl)cc(Cl)c3C[C@@H]2N2CC[C@@H](O)C2)ccc(-n2c(C)nnc2C)c1C             IC50      < 1 µM
13  N[C@H]1CCCN([C@@H]2Cc3ccccc3[C@H]2Oc2cccc3ncccc23)C1 (racemic)             IC50  1 to 10 µM
14  c1ccc2c(c1)C[C@@H](N1C[C@H]3CNC[C@H]3C1)[C@@H]2Oc1cccc2[nH]ccc12 (racemic)             IC50  1 to 10 µM
